# Target under test: RIPK1 (Homo sapiens (Human), UniProt Q13546)
# Sequence (Q13546 whole entry, species assumed): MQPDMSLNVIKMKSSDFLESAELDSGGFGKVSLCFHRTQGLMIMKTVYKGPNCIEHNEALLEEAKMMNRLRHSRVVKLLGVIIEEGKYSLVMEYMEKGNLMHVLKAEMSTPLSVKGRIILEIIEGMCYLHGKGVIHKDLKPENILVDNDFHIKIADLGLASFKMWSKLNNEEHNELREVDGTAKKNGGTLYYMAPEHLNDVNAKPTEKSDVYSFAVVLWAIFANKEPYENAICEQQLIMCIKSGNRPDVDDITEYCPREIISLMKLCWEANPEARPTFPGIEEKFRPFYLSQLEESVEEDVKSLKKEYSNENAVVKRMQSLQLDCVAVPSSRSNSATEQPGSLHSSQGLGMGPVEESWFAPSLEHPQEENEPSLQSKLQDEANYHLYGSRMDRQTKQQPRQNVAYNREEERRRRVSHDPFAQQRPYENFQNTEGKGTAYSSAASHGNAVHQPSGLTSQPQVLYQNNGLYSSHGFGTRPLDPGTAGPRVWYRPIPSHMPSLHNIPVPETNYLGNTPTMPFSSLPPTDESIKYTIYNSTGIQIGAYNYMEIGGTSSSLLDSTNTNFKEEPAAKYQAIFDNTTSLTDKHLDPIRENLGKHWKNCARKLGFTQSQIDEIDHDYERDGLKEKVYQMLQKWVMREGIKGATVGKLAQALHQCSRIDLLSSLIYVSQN
# Assay comment: RIPK1 ADP-Glo biochemical kinase assay
# Condition summary: hydrochloride; read-out: RIPK1 ADP-Glo Kinase (IC50)
Structures can show the parent of a compound that is named as a salt.
Endpoint label: IC50 (nM)
Give the value in nM but do not write nM after it.

Give recorded IC50. CN1C(=O)[C@@H](NC(=O)c2cc(Oc3ccccc3)ccn2)COc2ccc(C#CC(C)(C)N)cc21 [Compound I-167, hydrochloride]
17.5

----------
# Target under test: RIPK1 (Homo sapiens (Human), UniProt Q13546)
# Assay comment: RIPK1 ADP-Glo biochemical kinase assay
# Condition summary: read-out: RIPK1 ADP-Glo Kinase (IC50)
Endpoint label: IC50 (nM)
Give the value in nM but do not write nM after it.

Please report the measured IC50 for CN1C(=O)[C@@H](NC(=O)c2cc(Cc3ccc(F)cc3)ccn2)COc2ccc(C#CC3(O)COC3)cc21 tested on RIPK1 (Homo sapiens (Human), UniProt Q13546).
24.6

Please report the measured IC50 for CN1C(=O)[C@@H](NC(=O)c2n[nH]c(Cc3ccccc3)n2)COc2ccc(C#CCCOc3ccc4cccnc4c3)cc21 tested on RIPK1 (Homo sapiens (Human), UniProt Q13546).
80

Please report the measured IC50 for CN1C(=O)[C@@H](NC(=O)c2cc(Oc3ccccc3)ccn2)COc2ccc(C#CC3(O)CN(C(=O)C(F)(F)F)C3)cc21 tested on RIPK1 (Homo sapiens (Human), UniProt Q13546).
55.4

Please report the measured IC50 for CN1C(=O)[C@@H](NC(=O)c2cc(Oc3ccc(F)cc3F)ccn2)COc2ccc(C#CC(C)(C)O)cc21 tested on RIPK1 (Homo sapiens (Human), UniProt Q13546).
31.2

Please report the measured IC50 for C=C(C)C#Cc1ccc2c(c1)N(C)C(=O)[C@@H](NC(=O)c1n[nH]c(Cc3ccccc3)n1)CO2 tested on RIPK1 (Homo sapiens (Human), UniProt Q13546).
57.9

Please report the measured IC50 for CN1C(=O)[C@@H](NC(=O)c2n[nH]c(Cc3ccc(F)cc3F)n2)COc2ccc(CCC(=O)NC3CC3)cc21 tested on RIPK1 (Homo sapiens (Human), UniProt Q13546).
158

Please report the measured IC50 for CN1C(=O)[C@@H](NC(=O)c2n[nH]c(Cc3ccccc3)n2)COc2ccc(CCC(=O)NC3CC3)cc21 tested on RIPK1 (Homo sapiens (Human), UniProt Q13546).
53.9

Please report the measured IC50 for Cc1cc(Oc2ccccc2)cc(C(=O)N[C@H]2COc3ccc(C#CC(C)(C)O)cc3N(C)C2=O)n1 tested on RIPK1 (Homo sapiens (Human), UniProt Q13546).
59.8

Please report the measured IC50 for CN1C(=O)[C@@H](NC(=O)n2cc(Cc3ccccc3)cn2)COc2ccc(C#CC(C)(C)O)cc21 tested on RIPK1 (Homo sapiens (Human), UniProt Q13546).
35.2

Please report the measured IC50 for CN1C(=O)[C@@H](NC(=O)c2cc(Oc3ccccc3)ccn2)COc2ccc(C#CC3(O)C[S+]([O-])C3)cc21 (some centres unmarked) tested on RIPK1 (Homo sapiens (Human), UniProt Q13546).
17.2

Please report the measured IC50 for CN1C(=O)[C@@H](NC(=O)c2cc(Oc3ccccc3)ccn2)COc2ccc(C#CC(C)(C)COC(=O)CCC(=O)O)cc21 tested on RIPK1 (Homo sapiens (Human), UniProt Q13546).
22

Please report the measured IC50 for CN1C(=O)[C@@H](NC(=O)c2n[nH]c(Cc3ccccc3)n2)COc2cc(C#CC(C)(C)O)ccc21 tested on RIPK1 (Homo sapiens (Human), UniProt Q13546).
30.3

Please report the measured IC50 for Cc1cccc(C)c1Oc1ccnc(C(=O)N[C@H]2COc3ccc(C#CC(C)(C)O)cc3N(C)C2=O)c1 tested on RIPK1 (Homo sapiens (Human), UniProt Q13546).
93.5

Please report the measured IC50 for CN1C(=O)[C@@H](NC(=O)c2ncn(Cc3ccccc3)n2)COc2ccc(CN3CCn4c(nnc4C(F)(F)F)C3)cc21 tested on RIPK1 (Homo sapiens (Human), UniProt Q13546).
43.7
